Hey, just so you know, these numbers are from ChEMBL document CHEMBL1153890.

test system: PANC-1; test: Cell cycle arrest in human PANC1 cells assessed as accumulation at G2/M phase at 100 nM after 24 hrs by flow cytometry; type: functional
READOUT: Activity

Ask: Given the compound "C=C/C=C\[C@H](C)[C@@H]1OC(=O)/C=C\C=C\[C@@H](C)[C@@H](O)C[C@H](O)/C=C\[C@H](C)[C@H](O)[C@@H](C)C[C@@H](C)CC[C@@H](O)[C@@H]1C" , what is its reported Activity?
Result: 82%

Ask: Given the compound "C=C/C=C\[C@H](C)[C@@H]1OC(=O)CC/C=C/[C@@H](C)[C@@H](O)C[C@H](O)/C=C\[C@H](C)[C@H](O)[C@@H](C)C[C@@H](C)CC[C@@H](O)[C@@H]1C" , what is its reported Activity?
Result: 75%

Ask: Given the compound "C=C/C=C\[C@H](C)[C@@H]1OC(=O)/C=C\C=C\C[C@@H](O)C[C@H](O)/C=C\[C@H](C)[C@H](O)[C@@H](C)C[C@@H](C)CC[C@@H](O)[C@@H]1C" , what is its reported Activity?
Result: 76%

Now examine the next entry.
Ask: Given the compound "C=C/C=C\[C@H](C)[C@@H]1OC(=O)CCCC[C@@H](C)[C@@H](O)C[C@H](O)/C=C\[C@H](C)[C@H](O)[C@@H](C)C[C@@H](C)CC[C@@H](O)[C@@H]1C" , what is its reported Activity?
Result: 84%
